molecular target: Cyclin-dependent kinase 19 (Homo sapiens)
Sequence (Q9BWU1 whole entry): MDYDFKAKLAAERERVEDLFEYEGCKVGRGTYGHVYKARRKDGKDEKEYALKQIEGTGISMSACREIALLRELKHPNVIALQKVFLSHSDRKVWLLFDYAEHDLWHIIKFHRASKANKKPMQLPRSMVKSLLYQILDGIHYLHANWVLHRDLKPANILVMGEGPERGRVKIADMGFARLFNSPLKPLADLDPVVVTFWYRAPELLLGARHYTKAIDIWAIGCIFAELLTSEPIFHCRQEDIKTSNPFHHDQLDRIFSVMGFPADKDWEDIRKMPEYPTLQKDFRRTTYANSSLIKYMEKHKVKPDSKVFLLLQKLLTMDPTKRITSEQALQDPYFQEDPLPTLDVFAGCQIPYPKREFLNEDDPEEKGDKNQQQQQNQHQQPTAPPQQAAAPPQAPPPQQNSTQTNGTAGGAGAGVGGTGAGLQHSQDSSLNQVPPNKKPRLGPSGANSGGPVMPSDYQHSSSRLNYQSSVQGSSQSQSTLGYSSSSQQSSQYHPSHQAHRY
TEST_READOUT: pIC50
Here pIC50 is given on a logarithmic scale as minus log10 of the concentration in mol/L.

**Query** Find pIC50 (Cyclin-dependent kinase 19 (Homo sapiens)) for the entry `Cc1n[nH]c2ccc(-c3nnc(C)n3Cc3ccc(C(F)(F)F)cc3)cc12`
**Result** 8.70

---

molecular target: Serine/threonine-protein kinase LATS2 (Homo sapiens, UniProt Q9NRM7); test: Binding affinity to LATS2 (unknown origin) assessed as dissociation constant by competitive binding assay
Sequence (Q9NRM7 whole entry): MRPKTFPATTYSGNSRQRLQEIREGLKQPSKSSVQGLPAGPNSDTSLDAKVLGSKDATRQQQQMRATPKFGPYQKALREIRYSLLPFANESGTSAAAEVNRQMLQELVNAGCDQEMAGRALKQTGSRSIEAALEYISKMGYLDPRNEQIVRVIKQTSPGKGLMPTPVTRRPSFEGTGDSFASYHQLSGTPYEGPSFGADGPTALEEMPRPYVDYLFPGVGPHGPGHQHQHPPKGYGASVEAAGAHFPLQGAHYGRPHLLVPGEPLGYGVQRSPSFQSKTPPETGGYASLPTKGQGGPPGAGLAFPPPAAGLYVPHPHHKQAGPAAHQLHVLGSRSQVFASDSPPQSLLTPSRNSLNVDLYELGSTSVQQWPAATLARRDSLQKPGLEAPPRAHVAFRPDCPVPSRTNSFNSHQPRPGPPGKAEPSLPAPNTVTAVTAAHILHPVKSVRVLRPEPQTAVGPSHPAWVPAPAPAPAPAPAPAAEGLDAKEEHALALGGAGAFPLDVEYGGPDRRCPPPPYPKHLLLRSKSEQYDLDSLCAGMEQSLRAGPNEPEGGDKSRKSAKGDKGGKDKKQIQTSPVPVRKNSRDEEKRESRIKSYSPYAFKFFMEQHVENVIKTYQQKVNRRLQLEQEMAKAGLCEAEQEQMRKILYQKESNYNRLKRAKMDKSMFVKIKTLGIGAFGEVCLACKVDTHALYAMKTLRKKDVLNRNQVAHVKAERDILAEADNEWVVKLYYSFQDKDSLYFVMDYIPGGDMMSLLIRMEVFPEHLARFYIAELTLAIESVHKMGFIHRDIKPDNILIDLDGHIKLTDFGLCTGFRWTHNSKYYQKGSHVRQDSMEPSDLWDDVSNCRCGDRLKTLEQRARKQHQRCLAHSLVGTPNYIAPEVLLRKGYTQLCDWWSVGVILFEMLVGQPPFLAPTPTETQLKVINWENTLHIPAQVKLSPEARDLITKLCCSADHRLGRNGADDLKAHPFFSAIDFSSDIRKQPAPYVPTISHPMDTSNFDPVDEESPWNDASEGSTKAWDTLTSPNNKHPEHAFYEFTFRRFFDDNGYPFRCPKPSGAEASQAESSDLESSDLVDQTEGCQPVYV
TEST_READOUT: Kd (nM)
Report as a plain number; the unit nM is understood.

**Query** Enter reported Kd observed with Serine/threonine-protein kinase LATS2 (Homo sapiens, UniProt Q9NRM7) for `Cc1n[nH]c2ncc(-c3nnc4n3[C@H](c3ccc(Cl)cc3)CC4)cc12`
**Result** 730

---

molecular target: Dual specificity tyrosine-phosphorylation-regulated kinase 1B (Homo sapiens)
Sequence (Q9Y463 whole entry): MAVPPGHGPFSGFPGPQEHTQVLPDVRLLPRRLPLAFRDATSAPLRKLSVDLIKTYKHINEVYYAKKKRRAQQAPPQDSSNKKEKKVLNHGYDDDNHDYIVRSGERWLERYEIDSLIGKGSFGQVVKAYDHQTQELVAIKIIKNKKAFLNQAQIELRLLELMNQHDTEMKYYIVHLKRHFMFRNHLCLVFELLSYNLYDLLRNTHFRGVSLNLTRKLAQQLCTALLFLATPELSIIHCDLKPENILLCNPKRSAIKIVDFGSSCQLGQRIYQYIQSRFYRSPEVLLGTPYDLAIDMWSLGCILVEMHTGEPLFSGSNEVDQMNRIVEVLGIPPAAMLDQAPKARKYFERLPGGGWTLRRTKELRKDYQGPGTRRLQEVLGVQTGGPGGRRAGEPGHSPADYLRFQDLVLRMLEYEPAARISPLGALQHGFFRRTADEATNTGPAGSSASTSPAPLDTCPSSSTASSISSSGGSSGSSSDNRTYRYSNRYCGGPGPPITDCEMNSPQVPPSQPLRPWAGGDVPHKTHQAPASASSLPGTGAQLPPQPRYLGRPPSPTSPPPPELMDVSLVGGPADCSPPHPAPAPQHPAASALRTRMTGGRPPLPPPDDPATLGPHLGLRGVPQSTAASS
pKd: −log10 of the molar value.
# if value of pKd reaches 6, tag Criterion met; if it stays below, tag Criterion not met

- Cc1n[nH]c2ccc(-c3nnc4n3[C@H](c3ccc(Cl)cc3)CC4)cc12: Criterion met
- Cc1n[nH]c2ncc(-c3nnc4n3[C@H](c3ccc(Cl)cc3)CC4)cc12: Criterion not met

Proceed to the following item.
**Query** Could you please find out whether `Cc1n[nH]c2ccc(-c3nnc(C)n3Cc3ccc(C(F)(F)F)cc3)cc12` has pKd that meets 6 or exceeds it?
**Result** Criterion not met

---

biological target: CDK8/Cyclin C (Homo sapiens, UniProt P49336); test: Inhibition of His tagged human recombinant CDK8/Cyclin C expressed in baculovirus expression system incubated for 15 mins by FRET-based LanthaScreen binding competition assay
Sequence (P49336 whole entry): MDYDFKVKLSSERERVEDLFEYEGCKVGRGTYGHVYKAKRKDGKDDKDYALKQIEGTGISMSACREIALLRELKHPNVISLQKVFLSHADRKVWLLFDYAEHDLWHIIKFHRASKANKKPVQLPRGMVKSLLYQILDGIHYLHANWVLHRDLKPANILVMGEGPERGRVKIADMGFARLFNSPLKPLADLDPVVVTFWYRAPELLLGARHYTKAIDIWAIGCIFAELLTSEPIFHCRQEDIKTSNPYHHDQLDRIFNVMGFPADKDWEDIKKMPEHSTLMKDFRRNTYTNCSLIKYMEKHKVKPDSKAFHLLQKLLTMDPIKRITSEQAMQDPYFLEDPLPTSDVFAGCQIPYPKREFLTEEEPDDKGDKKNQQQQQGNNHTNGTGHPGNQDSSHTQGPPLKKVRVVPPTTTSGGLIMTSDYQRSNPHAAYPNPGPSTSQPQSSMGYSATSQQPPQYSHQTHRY
Sequence (P24863 whole entry, further chain): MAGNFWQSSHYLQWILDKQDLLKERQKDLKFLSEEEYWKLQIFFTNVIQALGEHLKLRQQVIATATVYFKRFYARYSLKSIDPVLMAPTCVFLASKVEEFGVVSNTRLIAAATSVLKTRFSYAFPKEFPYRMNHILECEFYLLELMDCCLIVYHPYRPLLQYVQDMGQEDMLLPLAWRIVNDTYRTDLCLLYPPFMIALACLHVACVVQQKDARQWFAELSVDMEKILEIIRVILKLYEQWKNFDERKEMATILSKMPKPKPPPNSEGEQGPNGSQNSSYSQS
// values below are reported pIC50
A value of pIC50 is the negative decimal logarithm of a concentration given in moles per litre.

• Cc1n[nH]c2ccc(-c3nnc(C)n3Cc3ccc(Cl)cc3)nc12 = 8.48
• Cc1n[nH]c2ccc(-c3nnc(C)n3Cc3ccc(Cl)cc3)cc12 = 9.31

**Query** Quick one: pIC50 for `Cc1n[nH]c2ccc(-c3nnc(C)n3Cc3ccc(C(F)(F)F)cc3)cc12` ?
**Result** 9.15

---

target: Voltage-gated inwardly rectifying potassium channel KCNH2 (Homo sapiens); test: Inhibition of hERG expressed in CHO cells at -80 mV holding potential by whole cell patch clamp recording assay
Sequence (Q12809 whole entry): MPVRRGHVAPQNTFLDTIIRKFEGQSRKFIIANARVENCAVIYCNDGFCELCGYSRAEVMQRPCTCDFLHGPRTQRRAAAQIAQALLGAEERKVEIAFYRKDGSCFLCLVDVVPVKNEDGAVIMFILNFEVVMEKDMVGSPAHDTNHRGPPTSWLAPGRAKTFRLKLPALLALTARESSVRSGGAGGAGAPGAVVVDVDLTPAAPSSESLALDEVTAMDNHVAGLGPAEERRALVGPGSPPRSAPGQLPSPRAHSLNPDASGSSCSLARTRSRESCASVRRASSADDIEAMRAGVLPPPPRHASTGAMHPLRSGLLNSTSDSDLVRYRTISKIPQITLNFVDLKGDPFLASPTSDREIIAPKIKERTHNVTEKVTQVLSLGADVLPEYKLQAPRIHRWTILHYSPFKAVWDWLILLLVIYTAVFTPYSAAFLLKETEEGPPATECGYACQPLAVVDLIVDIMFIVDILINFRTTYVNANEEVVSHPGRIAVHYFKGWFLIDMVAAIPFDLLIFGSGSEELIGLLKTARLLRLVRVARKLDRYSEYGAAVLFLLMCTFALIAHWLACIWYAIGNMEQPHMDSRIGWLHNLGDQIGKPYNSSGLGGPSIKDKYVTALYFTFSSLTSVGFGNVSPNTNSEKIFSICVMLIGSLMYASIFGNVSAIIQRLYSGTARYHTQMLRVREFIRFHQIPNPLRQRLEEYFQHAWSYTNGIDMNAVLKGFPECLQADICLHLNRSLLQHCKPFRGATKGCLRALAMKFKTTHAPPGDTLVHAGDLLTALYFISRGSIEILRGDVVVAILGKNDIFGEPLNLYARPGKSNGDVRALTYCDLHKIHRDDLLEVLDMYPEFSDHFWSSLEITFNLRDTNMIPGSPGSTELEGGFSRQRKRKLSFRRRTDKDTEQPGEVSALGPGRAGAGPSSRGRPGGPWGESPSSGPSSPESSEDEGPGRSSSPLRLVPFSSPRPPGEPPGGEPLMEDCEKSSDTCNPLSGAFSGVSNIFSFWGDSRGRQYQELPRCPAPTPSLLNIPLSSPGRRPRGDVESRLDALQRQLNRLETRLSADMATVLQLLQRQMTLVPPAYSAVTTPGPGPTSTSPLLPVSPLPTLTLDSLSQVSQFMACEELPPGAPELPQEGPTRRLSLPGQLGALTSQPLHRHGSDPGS
TEST_READOUT: IC50

**Query** Fill in the recorded IC50 for this molecule, with Voltage-gated inwardly rectifying potassium channel KCNH2 (Homo sapiens) as test system: `Cc1n[nH]c2ccc(-c3nnc(C)n3Cc3ccc(C(F)(F)F)cc3)cc12`
**Result** > 30 µM

---

Overview of recorded bioavailability for various compounds
assay: Bioavailability in CD-1 mouse at 5 mg/kg, po or 1 mg/kg, iv administered as single dose and measured for 24 hrs by LC-MS/MS analysis; assay type: ADME, organism-based; details: in vivo
Provide only the numeric value, understood in %.

**Query** Need bioavailability of `Cc1n[nH]c2ncc(-c3nnc4n3[C@H](c3ccc(Cl)cc3)CC4)cc12` , thanks.
**Result** 63.4

**Query** Query (compound): `Cc1n[nH]c2ccc(-c3nnc4n3[C@H](c3ccc(Cl)cc3)CC4)cc12` ; field requested: bioavailability
**Result** 63.7

**Query** Quick one: bioavailability for `Cc1n[nH]c2ccc(-c3nnc4n3[C@H](c3ccc(Cl)cc3)CC4)nc12` ?
**Result** 63.7

**Query** So what does the record say about bioavailability for `Cc1nnc(-c2ccc3[nH]nc(Cl)c3c2)n1Cc1ccc(Cl)cc1` ?
**Result** 50.8
